Data credit: patent US20240294635A1

measurementTarget: T1, cynomolgus/rhesus macaque CD47 protein, His Tag (ACRObiosystems, Cat. No. CD7-C52H1) (cynomolgus monkey (cynomolgus/rhesus …, UniProt A0A2K5X523 19-141))
T1 construct: bought reagent; also called Cynomolgus monkey CD47 protein
T1 sequence (A0A2K5X523 entry or part of it limits assumed): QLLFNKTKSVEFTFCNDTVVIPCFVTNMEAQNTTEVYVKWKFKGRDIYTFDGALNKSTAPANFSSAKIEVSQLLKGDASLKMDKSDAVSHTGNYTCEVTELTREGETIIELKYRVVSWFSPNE
procedureDetails: Biacore SPR, 25 C, antibody captured on CM5 chip
Collected pKd values appear next to each entry.
API: returns pKd as number; meaning -log10 of concentration in mol/L.

Sample answers from the record:
| binder | pKd |
| --- | --- |
| Xi3F10 (antibody, human IgG4 S228P, kappa, V domains shown, mouse variable regions on human IgG4 (EU S228P) and human kappa constant regions; also called chimeric 3F10 antibody) VH: EVQLQQSVAELMKPGASVKIYCKATGYTFSRYWIEWVKQRPGHGLEWIGEFIPGSDTTNFNEKFKGKATFTAEISSNTAYMQLSSLTSEDSAVYFCARGGLRRMDYWGQGTSVTVSS VL: DIVMTQTPAIMSASPGEKVTMTCRASSSVSSTYLHWYQQKSGASPKLWIYTTSTLASGVPARFSGSGSGTSYSLTISSVEAEDAATYYCQQFSDSTWTFGGGTKLEIKR | 8.98 |
| Xi2H8 (antibody, human IgG4 S228P, kappa, V domains shown, mouse variable regions on human IgG4 (EU S228P) and human kappa constant regions; also called chimeric 2H8 antibody) VH: QVQLKESGPGLVAPSQSLSITCTVSGFSLTNYGVHWVRQPPGKGLEWLGIIWAGGSTNYNSALMSRLSISKDNSKSQVFLKMNSLQTDDTAMYYCARDDYASMDYWGQGTSVTVSS VL: DAFMTQTPLSLPVSLGDQASISCRSSQSLVHSNGNTYLHWYLQKPGQSPKLLIYKVSNRFSGVPDRFSGSGSGTDFTLKISRVEAEDLGVYFCSQSTHVPYTLGGGTKLEIKR | 8.90 |
| Xi14A9 (antibody, human IgG4 S228P, kappa, V domains shown, mouse variable regions on human IgG4 (EU S228P) and human kappa constant regions; also called chimeric 14A9 antibody) VH: EVQLQQSGAEVARPGASVKLSCTVSGFNIEDDYIEWVKQRPEQGLEWIGRIDPANDKTKYAPKFQDKATITGDTSSNTAYLQLSSLTSEDTAVYYCTRPGLRRYYSMDYWGQGTSVTVSS VL: NIVLTQSPKSMSMSVGERVTLSCKASENVVSYVSWYQQKPEQSPKLLIYGASNRYTGVPDRFIGSGSSTDFTLIISSFQPEDLADYHCGQSYSYPLTFGAGTKLELKR | 8.80 |

Next binder, pKd to be filled in.
# input What does the data say about its pKd? Entry: Xi16E5 (antibody, human IgG4 S228P, kappa, V domains shown, mouse variable regions on human IgG4 (EU S228P) and human kappa constant regions; also called chimeric 16E5 antibody) VH: EVQLQQSGPELKKPGETVKISCKASGYTFTNYGMNWVKQVPGKGLKWMGWINTNTGEPTYAEEFKGRFAFSLETSARTAFLQINNLKNEDTATYFCTRFSHLRGPMDYWGQGASVTVSS VL: DAVMTQTPLSLPVSLGDQASISCRSSQSLVHSNGYTYLHWYLQKPGQSPKLLIYKVSNRFSGVPDRFSGSGSGTDFTLKISRLEAEDLGVYFCSQSTHVPPTFGGGTKLEIKR
# output 8.53
